Biological target: Voltage-gated inwardly rectifying potassium channel KCNH2 (Homo sapiens, UniProt Q12809);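 note: hERG channel blockade measured by electrophysiology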
Sequence (Q12809 whole entry): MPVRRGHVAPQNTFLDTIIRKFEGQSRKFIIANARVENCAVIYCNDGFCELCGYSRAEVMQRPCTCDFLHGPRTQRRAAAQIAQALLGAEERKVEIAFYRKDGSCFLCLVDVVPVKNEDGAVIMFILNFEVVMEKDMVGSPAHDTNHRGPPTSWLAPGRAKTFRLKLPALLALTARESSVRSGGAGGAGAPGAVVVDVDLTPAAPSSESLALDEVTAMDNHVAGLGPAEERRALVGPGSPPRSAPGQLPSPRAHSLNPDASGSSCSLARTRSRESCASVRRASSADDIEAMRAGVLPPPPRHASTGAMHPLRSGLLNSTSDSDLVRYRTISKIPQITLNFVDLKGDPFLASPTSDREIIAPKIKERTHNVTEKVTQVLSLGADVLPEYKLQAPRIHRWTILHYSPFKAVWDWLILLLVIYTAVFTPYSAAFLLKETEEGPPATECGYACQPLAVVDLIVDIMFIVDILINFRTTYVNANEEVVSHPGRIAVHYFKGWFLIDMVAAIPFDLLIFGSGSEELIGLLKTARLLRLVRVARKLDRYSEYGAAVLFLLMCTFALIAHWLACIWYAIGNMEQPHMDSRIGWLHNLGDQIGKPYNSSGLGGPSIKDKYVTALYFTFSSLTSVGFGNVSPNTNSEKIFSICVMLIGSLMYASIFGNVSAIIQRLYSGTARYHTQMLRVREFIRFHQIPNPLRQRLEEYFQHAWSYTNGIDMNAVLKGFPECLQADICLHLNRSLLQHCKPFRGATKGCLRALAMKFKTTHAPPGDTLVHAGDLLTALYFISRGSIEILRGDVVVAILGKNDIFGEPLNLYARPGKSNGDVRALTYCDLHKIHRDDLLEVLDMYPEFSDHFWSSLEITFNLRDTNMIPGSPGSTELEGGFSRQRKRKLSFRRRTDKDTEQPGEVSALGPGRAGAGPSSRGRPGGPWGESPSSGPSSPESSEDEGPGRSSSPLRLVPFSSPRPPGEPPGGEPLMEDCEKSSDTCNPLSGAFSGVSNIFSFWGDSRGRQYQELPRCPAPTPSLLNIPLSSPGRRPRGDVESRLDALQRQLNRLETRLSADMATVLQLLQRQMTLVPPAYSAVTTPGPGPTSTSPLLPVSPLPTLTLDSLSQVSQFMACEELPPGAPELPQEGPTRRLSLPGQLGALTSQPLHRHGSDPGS
// reported IC50 for each item listed
All answers are understood in µM, so give the number only.

- O=C(c1ccc2cc(Oc3ccc(C(F)(F)F)cc3)ccc2n1)N1CCNCC1: 5.91

// assay Voltage-gated inwardly rectifying potassium channel KCNH2 (Homo sapiens, UniProt Q12809), entry CN1CCN(C(=O)c2ccc3cc(Oc4ccccn4)ccc3n2)CC1 , IC50 value = 16.8

// assay Voltage-gated inwardly rectifying potassium channel KCNH2 (Homo sapiens, UniProt Q12809), entry O=C(c1ccc2cc(Oc3ccc(OC(F)(F)F)cn3)ccc2n1)N1CCNCC1 , IC50 value = 12.8

// assay Voltage-gated inwardly rectifying potassium channel KCNH2 (Homo sapiens, UniProt Q12809), entry O=C(c1ccc2cc(Oc3ccc(S(=O)(=O)C(F)(F)F)cc3)ccc2n1)N1CCNCC1 , IC50 value = 4.27

// assay Voltage-gated inwardly rectifying potassium channel KCNH2 (Homo sapiens, UniProt Q12809), entry N#Cc1ccc(Oc2ccc3nc(C(=O)N4CCNCC4)ccc3c2)cc1 , IC50 value = 5.2
